Values compiled from patent US20190241669A1.

target: Human BCMA (human) (UniProt Q02223); test: SPR, IgG immobilised, huBCMA analyte, 25 C
measurement type: kon (M⁻¹ s⁻¹)
Numeric only. Scale: M⁻¹ s⁻¹

binder	readout units	kon
L1.GDF/L3.NY/H3.AP (antibody, V domains shown) VH: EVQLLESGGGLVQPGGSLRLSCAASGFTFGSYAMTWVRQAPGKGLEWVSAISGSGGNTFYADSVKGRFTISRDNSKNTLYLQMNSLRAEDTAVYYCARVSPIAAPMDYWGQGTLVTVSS VL: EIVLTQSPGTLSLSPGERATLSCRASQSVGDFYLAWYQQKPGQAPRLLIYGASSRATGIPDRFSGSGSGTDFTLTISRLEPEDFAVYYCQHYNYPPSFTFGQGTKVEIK	M⁻¹ s⁻¹	1.41e+06

From here, focus on the item given below.
Entry under review: L1.LGF/L3.NY/H3.AP (antibody, V domains shown) VH: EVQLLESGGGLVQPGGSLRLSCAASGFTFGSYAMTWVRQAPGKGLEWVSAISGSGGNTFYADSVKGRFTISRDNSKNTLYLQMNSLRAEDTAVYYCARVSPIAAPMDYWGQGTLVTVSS VL: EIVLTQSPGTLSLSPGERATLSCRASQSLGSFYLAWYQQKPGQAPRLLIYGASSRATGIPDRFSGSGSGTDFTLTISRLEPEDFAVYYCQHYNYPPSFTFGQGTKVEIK . Reported kon?
936000
